Numbers sourced from PubChem BioAssay AID1285.

Assay: APP 5'UTR translational reporter suppression – APP 5'UTR luciferase, SH-SY5Y cells, primary screen (AID 1285)
Details: SH-SY5Y APP 5'UTR-luciferase reporter, luminescence; at 2 µM; hits give high values
Among all 190,000 compounds or so, about 1,600 (0.84%) were called active. This is one part of a sample in which actives are shown more often than they occur.
Quick reference: inhibition of the listed items.
Number in %, nothing else.

// known answers, use as guide
CC1CC(C)CN(C(=O)CSc2ccsc2[N+](=O)[O-])C1 (stereo not drawn)
-3.7
Cc1[nH]c2ccccc2c1-c1ccc(Cl)nn1
5.5
C=CCN1C2CCCC1CC(NC(=S)Nc1cccc(OC)c1)C2 (stereo not drawn)
-2.4
Cc1cc(C)c(S(=O)(=O)N2CCOCC2)cc1C
10.3
COC(=O)c1cc2c(ccn2C)n1C
-10.6

Now look at this one.
Can you look up the measured inhibition of `CC(C)(O)C#Cc1ncc(C(F)(F)F)cc1Cl` for me?
-2.7

* * *

Assay: APP 5'UTR translational reporter suppression – APP 5'UTR luciferase, SH-SY5Y cells, primary screen (AID 1285)
Settings: SH-SY5Y APP 5'UTR-luciferase reporter, luminescence; at 2 µM
The campaign covered roughly 190,000 compounds. About 1,600 (0.84%) were called active.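 The calls were made as follows: active = inhibition above a set limit, derived from the sample mean plus 3 SD (cut at about 45% in these data); inconclusive = one replicate passes the limit while the other fails; inactive = the rest.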 The entries come from a sample that favours actives as a whole.
Answer with one of the outcomes given here: active, inactive

COc1ccccc1OCCOc1ccc(/C=N/n2cnnc2)cc1
inactive
Cn1nnc(NC(=O)CSc2ncn[nH]2)n1
active
COc1ccc2nc(Nc3nc4ccc(NC(C)=O)cc4s3)sc2c1
inactive
Cc1ccsc1C(=O)N/N=C/c1ccc([N+](=O)[O-])cc1
inactive
NS(=O)(=O)c1ccc(NC(=O)COC(=O)c2ccc(Cl)nc2)cc1
inactive
COc1ccc(CCNS(=O)(=O)c2ccc(C(=O)NCc3ccco3)cc2)cc1OC
inactive
O=C(CSc1nc2ccc(Nc3nc(N4CCOCC4)nc(N4CCOCC4)n3)cc2s1)NCc1ccco1
inactive
O=C(CSc1ncn[nH]1)Nc1ccnc2ccccc12
inactive

Would you mind telling me which call this test gave `CCN(CC)CCCNC(=O)Cn1cnc2sc(C)c(S(=O)(=O)N3CCN(c4ncccn4)CC3)c2c1=O` ?
inactive

Hey, what did the test say about `Cc1nc([N+](=O)[O-])c(NCCCO)n1Cc1ccccc1` ?
inactive

Per the assay record, what outcome was assigned to `O=C(COC(=O)c1cnc(Cl)c(Cl)c1)NCc1ccco1` ?
inactive

# lookup: test call for `COc1cccc(/C=N/Nc2cc(C)nc(-c3ccccc3O)n2)c1O`
active

Could you please tell me the result logged for `COc1cccc2c(N/N=C/c3ccco3)cc(C)nc12` in this assay?
inactive

Identify the outcome logged in this assay for the molecule shown: `CC(C)N1CCC(=NNc2ccc([N+](=O)[O-])cc2S(=O)(=O)N2CCOCC2)CC1`
inactive

Recorded call for `N=c1c2c(-c3ccccc3)c(-c3ccccc3)oc2ncn1Cc1ccco1` ?
inactive

Please let me know the test result on file for `CCOc1ncccc1C(=O)OCC(=O)NC1CC1` .
inactive

What did the test return for `C/C(=N\NC(=O)Cc1ccc(Cl)cc1)c1ccccn1` ?
active

* * *

# inhibition values compiled below
Test: APP 5'UTR translational reporter suppression – APP 5'UTR luciferase, SH-SY5Y cells, primary screen (AID 1285)
Settings: SH-SY5Y APP 5'UTR-luciferase reporter, luminescence; at 2 µM; hits give high values
About 1,600 (0.84%) of roughly 190,000 compounds were called active. This is one part of a sample in which actives are shown more often than they occur.

Sample answers from the record:
CCCN=C1NC(=O)C(CC(=O)NCCc2ccc(OC)c(OC)c2)S1 (stereo not given)
74.7% (active)
COc1ccc(NC(=S)NCCNC(C)=O)cc1
-0.5% (inactive)
CN1CCC(=NNC(=O)c2ccc(N(Cc3ccc(Cl)cc3)S(C)(=O)=O)cc2)CC1
-0.2% (inactive)
CCCn1c(N)c(C(=O)CSc2nc3ccccc3c(=O)n2-c2ccc(OC)cc2)c(=O)[nH]c1=O
-3.9% (inactive)

What value of inhibition has been recorded for this entry: `CC(C)(C)NC(=O)NC(=O)COC(=O)CCC1CCCCC1`
61.5% (active)

Consider the compound `CCN(CC)S(=O)(=O)c1ccc(Cl)c(NC(=O)c2ccncc2)c1` and give its measured inhibition.
17.9% (inactive)

Could you tell me which inhibition is on file for CCOC(=O)c1c(C)[nH]c(C2=NNC(=NC(C)COC)SC2)c1C (stereo not given) ?
-102% (inactive)

Would you mind telling me what inhibition value was observed for `O=S(=O)(NCCc1ccncc1)c1ccccc1` ?
16.4% (inactive)

Please look up its inhibition: Cc1ccc(C(=O)NC(C)c2ccccc2)cc1Br (stereo not given)
25.6% (inactive)

I am curious: what inhibition value has been reported for `Nc1nonc1-n1nnc(C(=O)N/N=C/c2cc(Br)ccc2O)c1CSC1=NCCS1` ?
54.3% (active)
